- assay info: qHTS profiling of the MIPE4 collection as inhibitors of Plasmodium falciparum (3D7) proliferation (AID 743344);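 also: scaled between DMSO vehicle wells and 0.29 µM artemisinin as full inhibition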
- test parameters: P. falciparum 3D7 in erythrocytes, SYBR Green DNA fluorescence, 72 h; at 28.5 µM unless noted
Measured parasite growth, % of DMSO control of individual entries

[
  {
    "molecule": "Oc1c(Cl)cc(Cl)c2cccnc12",
    "unit string": "%",
    "parasite growth, % of DMSO control": 123
  },
  {
    "molecule": "Cc1onc(-c2ccccc2Cl)c1C(=O)N[C@@H]1C(=O)N2[C@@H]1SC(C)(C)[C@@H]2C(=O)O",
    "unit string": "%",
    "parasite growth, % of DMSO control": 86.7
  },
  {
    "molecule": "CC(C)Cn1cnc2c(N)nc3ccccc3c21",
    "unit string": "%",
    "parasite growth, % of DMSO control": 43.4
  },
  {
    "molecule": "COC(=O)Nc1nc2ccc(Sc3ccccc3)cc2[nH]1",
    "unit string": "%",
    "parasite growth, % of DMSO control": 75.4
  },
  {
    "molecule": "Cn1c(=O)c2c(ncn2CC(O)CO)n(C)c1=O (stereo unspecified)",
    "unit string": "%",
    "parasite growth, % of DMSO control": 85.8
  },
  {
    "molecule": "CC1CC2C3CCC4=CC(=O)C=C[C@]4(C)[C@@]3(F)[C@@H](O)C[C@]2(C)[C@@]1(O)C(=O)CO (stereo partly specified)",
    "unit string": "%",
    "parasite growth, % of DMSO control": 85.2
  },
  {
    "molecule": "CC(C)(C)NC(=O)[C@H]1CC[C@H]2[C@@H]3CC[C@H]4NC(=O)C=C[C@]4(C)[C@H]3CC[C@]12C",
    "unit string": "%",
    "parasite growth, % of DMSO control": 60.2
  },
  {
    "molecule": "CCC(C)(C)c1ccc(CC(C)CN2C[C@@H](C)O[C@@H](C)C2)cc1 (stereo partly specified)",
    "unit string": "%",
    "parasite growth, % of DMSO control": 17.4
  },
  {
    "molecule": "Cn1nnc2c(C(N)=O)ncn2c1=O",
    "unit string": "%",
    "parasite growth, % of DMSO control": 97.2
  },
  {
    "molecule": "CCOC(=O)c1ccc(C#Cc2ccc3c(c2)C(C)(C)CCS3)nc1",
    "unit string": "%",
    "parasite growth, % of DMSO control": 36.2
  },
  {
    "molecule": "O=S(=O)(O)CCS",
    "unit string": "%",
    "parasite growth, % of DMSO control": 87.9
  }
]

---

- assay info: Quantitative High-Throughput drug screen in 47 multiple myeloma cell lines against the NCATS MIPE library collection: KMS11_JCRBsus cell viability assay (AID 1919873); also: nearly all actives have a fitted effect of over 50% in size
- test parameters: KMS11 myeloma viability, CellTiter-Glo ATP luminescence, 48 h; series mostly up to 45.8 µM
Records with an inconclusive call do not appear. Active and inactive are the calls of the source. The call rests on the fitted dose curve; in most records, active means well fitted cell-killing curve with a large enough effect; inconclusive means small, poorly fitted or top-dose-only effect, or effect the other way; inactive means no such curve, though single readings can be large or run the other way.
Labels: Yes = active, No = inactive

[
  {
    "molecule": "CC(C)(C#N)c1cc(Cn2cncn2)cc(C(C)(C)C#N)c1",
    "qualitative label": "No"
  },
  {
    "molecule": "CS(=O)(=O)c1ccc([C@@H](O)[C@@H](CO)NC(=O)C(Cl)Cl)cc1",
    "qualitative label": "Yes"
  },
  {
    "molecule": "NNC(=O)c1ccncc1",
    "qualitative label": "No"
  },
  {
    "molecule": "CNC1CCCN(c2c(F)cc3c(=O)c(C(=O)O)cn(C4CC4)c3c2OC)C1 (centres undefined)",
    "qualitative label": "Yes"
  },
  {
    "molecule": "CC(C)C1CCC(C(=O)N[C@H](Cc2ccccc2)C(=O)O)CC1 (some centres undefined)",
    "qualitative label": "Yes"
  },
  {
    "molecule": "CC(N)C12CC3CC(CC(C3)C1)C2 (centres undefined)",
    "qualitative label": "No"
  },
  {
    "molecule": "CC1=NN(c2ccccc2)C(=O)C1",
    "qualitative label": "No"
  },
  {
    "molecule": "O=C(O)c1cc(=O)[nH]c(=O)[nH]1",
    "qualitative label": "No"
  },
  {
    "molecule": "NS(=O)(=O)c1cc2c(cc1Cl)NC(C(Cl)Cl)NS2(=O)=O (centres undefined)",
    "qualitative label": "No"
  },
  {
    "molecule": "COc1ccc(C(=O)CC(=O)c2ccc(C(C)(C)C)cc2)cc1",
    "qualitative label": "No"
  },
  {
    "molecule": "C[C@@H](CN1CC(=O)NC(=O)C1)N1CC(=O)NC(=O)C1",
    "qualitative label": "No"
  },
  {
    "molecule": "COC(=O)Nc1nc2ccc(S(=O)c3ccccc3)cc2[nH]1 (centres undefined)",
    "qualitative label": "Yes"
  },
  {
    "molecule": "COc1ccc2c(c1)c(CC(=O)OCC(=O)O)c(C)n2C(=O)c1ccc(Cl)cc1",
    "qualitative label": "No"
  },
  {
    "molecule": "COc1nc(N)nc2c1ncn2[C@@H]1O[C@H](CO)[C@@H](O)[C@@H]1O",
    "qualitative label": "No"
  },
  {
    "molecule": "CC(C)(C)NC(=O)[C@H]1CC[C@H]2[C@@H]3CC[C@H]4NC(=O)C=C[C@]4(C)[C@H]3CC[C@]12C",
    "qualitative label": "No"
  },
  {
    "molecule": "OC(Cn1cncn1)(Cn1cncn1)c1ccc(F)cc1F",
    "qualitative label": "No"
  },
  {
    "molecule": "CCN[C@H]1C[C@H](C)S(=O)(=O)c2sc(S(N)(=O)=O)cc21",
    "qualitative label": "No"
  },
  {
    "molecule": "NC(=O)c1cccc(N)c1",
    "qualitative label": "No"
  },
  {
    "molecule": "Cn1nnc2c(C(N)=O)ncn2c1=O",
    "qualitative label": "No"
  },
  {
    "molecule": "CCCCS(=N)(=O)CCC(N)C(=O)O (centres undefined)",
    "qualitative label": "No"
  },
  {
    "molecule": "Cc1ccc(S(=O)(=O)N[C@@H](Cc2ccccc2)C(=O)CCl)cc1",
    "qualitative label": "Yes"
  },
  {
    "molecule": "O=C(O)CSCC(=O)NC1CCSC1=O (centres undefined)",
    "qualitative label": "No"
  },
  {
    "molecule": "CNS(=O)(=O)CCc1ccc2[nH]cc(C3CCN(C)CC3)c2c1",
    "qualitative label": "No"
  },
  {
    "molecule": "C[C@]12C=CC(=O)C=C1CC[C@@H]1[C@@H]2C(=O)C[C@@]2(C)[C@H]1CC[C@]2(O)C(=O)CO",
    "qualitative label": "No"
  }
]
